# credit: PubChem BioAssay (NCI)

- System: M14 melanoma
- method: NCI tumour cell line growth inhibition, 48 h; in the data active means GI50 below about 0.43 µM; inactive means the rest
Reply using exactly one outcome from Yes (active), No (inactive)

Incoming: Per the records of this test, what outcome belongs to `Cc1cc(Nc2ccc3c(c2)OCO3)c2cc3c(cc2n1)OCO3` ?
Outgoing: No

Incoming: Write down the call the test reported for this molecule. Item: `Cc1nc2cc(Nc3nc(N4CCCCC4)nc(N4CCOCC4)n3)ccc2n1Cc1ccccc1`
Outgoing: No

Incoming: Look up the recorded call for `C[n+]1c2ccccc2c(Nc2ccc(N3CCCCC3)cc2)c2[nH]c3ccccc3c21` in this test.
Outgoing: Yes

Incoming: How was `O=C(Nc1cccc(Cl)c1)Nc1nccs1` classified in this test?
Outgoing: No

Incoming: Please let me know the test result on file for C[C@]12CCC(=O)CC1CC[C@@H]1C2CC[C@@]2(C)C1CC[C@@H]2OC(=O)CC[Se][Se]CCC(=O)O[C@H]1CCC2[C@@H]3CCC4CC(=O)CC[C@]4(C)C3CC[C@@]21C (stereo not given in full) .
Outgoing: No

Incoming: Look up the recorded call for N#Cc1c(Br)n(C2OC(CO)C(O)C2O)c2ncn3ccnc3c12 (stereo not given) in this test.
Outgoing: No

Incoming: Dear all, I need the recorded test outcome for CC(O)CCc1ccc(Oc2c3ccccc3nc3occc23)cc1 (stereo not given) , thank you.
Outgoing: No

Incoming: Assay result, entry `Cc1nc2c(o1)C(=O)c1ccccc1C2=Nc1ccccc1` — outcome?
Outgoing: No

Incoming: Lab log entry: COc1cc2c(cc1OCc1ccccc1)N=CC1C[C@@H](O)CN1C2=O (stereo not given in full) — outcome as called in the assay?
Outgoing: No

Incoming: Entry `C=C1C(=O)O[C@H]2[C@H]1CC/C(COC(=O)CCCC(=O)OC/C1=C/CC[C@@]3(C)O[C@H]3[C@H]3OC(=O)C(=C)[C@@H]3CC1)=C\CC[C@@]1(C)O[C@@H]21` : call = ?
Outgoing: No
